Target: human 5HT2A receptor (Homo sapiens, UniProt P28223)
Sequence (P28223 whole entry): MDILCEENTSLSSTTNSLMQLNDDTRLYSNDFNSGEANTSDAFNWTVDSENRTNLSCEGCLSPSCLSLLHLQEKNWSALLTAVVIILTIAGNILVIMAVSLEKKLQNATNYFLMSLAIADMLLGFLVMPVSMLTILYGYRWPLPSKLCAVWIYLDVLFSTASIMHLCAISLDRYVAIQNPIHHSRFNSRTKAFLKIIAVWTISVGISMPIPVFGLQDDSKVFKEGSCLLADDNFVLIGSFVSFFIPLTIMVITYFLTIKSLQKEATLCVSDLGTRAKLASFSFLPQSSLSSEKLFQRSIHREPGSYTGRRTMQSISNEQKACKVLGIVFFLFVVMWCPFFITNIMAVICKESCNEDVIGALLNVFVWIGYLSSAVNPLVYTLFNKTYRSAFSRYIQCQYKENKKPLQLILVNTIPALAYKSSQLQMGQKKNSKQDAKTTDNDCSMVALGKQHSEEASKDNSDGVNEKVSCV
pKi: −log10 of the molar value.
Classification field: satisfied = pKi at or over 9; not satisfied = pKi under 9.

CN(C)CCN(Cc1ccc(F)cc1)Cc1cncc(-c2ccc3[nH]ncc3c2)c1
satisfied
O=C(c1ccc(F)cc1)N(Cc1cc(-c2ccc3[nH]ccc3c2)ccc1F)CC12CCN(CC1)CC2
not satisfied
Fc1ccc([C@H]2CNCCN2Cc2cncc(-c3ccc4[nH]ccc4c3)c2)cc1
satisfied
CN(C)CCN(Cc1cc(-c2ccc3[nH]cc(C#N)c3c2)ccc1F)C(=O)c1ccc(F)cc1
not satisfied

[ask] Exam item: decide whether the reported pKi for O=C(c1ccc(F)cc1)N(CCN1CCCC1)Cc1cc(-c2ccc3[nH]ccc3c2)ccc1F is at least 9.
[reply] satisfied

[ask] Exam item: decide whether the reported pKi for Cc1cc2cc(-c3ccc(F)c(CN(CCN(C)C)C(=O)c4ccc(F)cc4)c3)ccc2[nH]1 is at least 9.
[reply] satisfied

[ask] Exam item: decide whether the reported pKi for CN1CCN(Cc2cc(-c3ccc4[nH]ccc4n3)ccc2F)[C@@H](c2ccc(F)cc2)C1 is at least 9.
[reply] not satisfied

---

Biological target: 5HT2A receptor site (Mus musculus, UniProt P35363)
Construct: from tissue; host or cells: live male mice (whole animal)
Sequence (P35363 whole entry): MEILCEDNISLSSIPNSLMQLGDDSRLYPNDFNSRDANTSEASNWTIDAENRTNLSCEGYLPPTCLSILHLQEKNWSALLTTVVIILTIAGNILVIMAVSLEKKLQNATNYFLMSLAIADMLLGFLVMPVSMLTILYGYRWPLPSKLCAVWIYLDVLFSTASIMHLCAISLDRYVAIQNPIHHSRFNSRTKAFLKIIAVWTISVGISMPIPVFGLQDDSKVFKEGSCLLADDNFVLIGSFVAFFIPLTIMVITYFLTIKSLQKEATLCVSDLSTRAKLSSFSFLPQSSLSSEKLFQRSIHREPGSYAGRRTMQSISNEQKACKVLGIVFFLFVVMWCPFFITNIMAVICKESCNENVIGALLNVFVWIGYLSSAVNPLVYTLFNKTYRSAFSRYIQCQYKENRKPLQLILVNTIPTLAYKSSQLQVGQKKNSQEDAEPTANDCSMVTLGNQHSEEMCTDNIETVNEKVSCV
Assay: Head Twitch Assay (5-MeODMT induced head twitch)
Assay type: in vivo
Settings: mouse; sc; dose blocking 5-MeODMT (30 mg/kg i.p.) head twitch in 50% of male mice
Hi! Just check whether ED50 is below 0.5 mg/kg. Below gives label 1, equal or above gives label 0.

CN1CCN(Cc2cc(-c3ccc4[nH]ccc4c3)ccc2F)[C@@H](c2ccc(F)cc2)C1
label 0
CN1CCC(N(Cc2cc(-c3ccc4[nH]ccc4c3)ccc2F)C(=O)c2ccc(F)cc2)CC1
label 0
CN1CCC(N(Cc2cccc(-c3ccc4[nH]ccc4c3)c2)C(=O)c2ccc(F)cc2)CC1
label 0

[ask] Problem: For the molecule CC(=O)O.CN1CCN(Cc2cc(-c3ccc4[nH]ncc4c3)ccc2F)[C@@H](c2cccs2)C1 , is ED50 under 0.5 mg/kg?
[reply] label 1

[ask] Problem: For the molecule Fc1ccc([C@H]2CNCCN2Cc2cc(-c3ccc4[nH]ncc4c3)ccc2F)cc1 , is ED50 under 0.5 mg/kg?
[reply] label 0

[ask] Problem: For the molecule CN1CCN(Cc2cc(-c3ccc4[nH]ncc4c3)co2)[C@@H](c2ccc(F)cc2)C1 , is ED50 under 0.5 mg/kg?
[reply] label 1

[ask] Problem: For the molecule CN(C)CCN(Cc1cc(-c2ccc3[nH]c(=O)oc3c2)ccc1F)C(=O)c1ccc(F)cc1 , is ED50 under 0.5 mg/kg?
[reply] label 0

[ask] Problem: For the molecule CC(=O)O.CN1CCN(Cc2cncc(-c3ccc4[nH]ccc4c3)c2)[C@@H](c2ccc(F)cc2)C1 , is ED50 under 0.5 mg/kg?
[reply] label 1

[ask] Problem: For the molecule O=C(c1ccc(F)cc1)N(CCN1CCCC1)Cc1cc(F)cc(-c2ccc3[nH]ccc3c2)c1 , is ED50 under 0.5 mg/kg?
[reply] label 0

[ask] Problem: For the molecule CC(=O)O.Fc1ccc(-c2ccc3[nH]ncc3c2)cc1CN1CCNC[C@@H]1c1cccs1 , is ED50 under 0.5 mg/kg?
[reply] label 0

[ask] Problem: For the molecule Cc1cc2cc(-c3ccc(F)c(CN(CCN(C)C)C(=O)c4ccc(F)cc4)c3)ccc2[nH]1 , is ED50 under 0.5 mg/kg?
[reply] label 1

[ask] Problem: For the molecule O=C(c1ccc(F)cc1)N(CCN1CCCC1)Cc1cc(-c2ccc3[nH]ccc3c2)ccc1F , is ED50 under 0.5 mg/kg?
[reply] label 1

[ask] Problem: For the molecule CN(C)CCN(Cc1cc(-c2ccc3[nH]ccc3c2)ccc1F)C(=O)c1ccc(F)cc1 , is ED50 under 0.5 mg/kg?
[reply] label 0
